Reference source for all entries: patent US11571480B2

Tested on: melanoma cell line A375
method: Cytotoxicity test of conjugate LDC10BR
Type: cell-based
assay setup: A375, incubated 15-30 min, then 2-3 days
Square brackets hold non-standard residues; d marks the D form. Peptide text beside a SMILES is read from it. * marks the point of attachment. Dolaproine = CO[C@@H]([C@@H]1CCCN1)[C@@H](C)C(=O)O; Dil = CC[C@H](C)[C@H](NC)[C@@H](CC(=O)O)OC; X1 = C[C@@H](N*)[C@@H](O)c1ccccc1; NMeV = CN[C@H](C(=O)O)C(C)C
outcome measure: IC50 (nM)
Give bare numbers, in nM.

## Task Request body: readout IC50, system melanoma cell line A375, query CC[C@H](C)[C@@H]([C@@H](CC(=O)N1CCC[C@H]1[C@H](OC)[C@@H](C)C(=O)N[C@H](C)[C@@H](O)c1ccccc1)OC)N(C)C(=O)[C@@H](NC(=O)[C@@H](NC)C(C)C)C(C)C [MMAE] (H-[NMeV]V[Dil][Dolaproine]-X1) . Return the value.
## Result 85
